# protocol.summary: Inhibitory activity against Glycogen synthase kinase-3 beta, expressed as percent control
# Design: concentration or dose not given beside the values
Bucketed by reported Control, buckets being lowest: < 50%; middle: ≥ 50% and < 90%; highest: ≥ 90%

1. C=CCC(CCC)C(=O)OC (stereo unspecified)    highest
2. CCCC(CCC)C(=O)O    lowest
3. CC/C=C(\CCC)C(=O)OC    lowest
4. CCCC(CCC)C(=O)OC    middle
5. C=CCC(CCC)C(=O)O (stereo unspecified)    middle
6. CCCC(C)(CCC)C(=O)O    lowest
7. C=CCC(CCC)C(=O)OC(C)C (stereo unspecified)    highest
8. CCCC(CCC)C(N)=O    middle
9. CCCC(C)(CCC)C(=O)OC    highest
